system: GLXMAW Soybean, Williams; test: Preemergence herbicidal evaluation, GLXMAW; type: in vivo, Glycine max, (L.) Merr. cv Williams; design: scale not given here; settings: preemergence, rate 0.062 kg/ha
Overview of reported GLXMAW herbicidal rating across a group of molecules:
Readout label: GLXMAW herbicidal rating

chem_smiles=C#CCOC(=O)COc1ccc(C)c(-n2nnc3cc(F)c(-n4c(=O)cc(C(F)(F)F)n(C)c4=O)cc32)c1 recorded_number=0.0
chem_smiles=COc1ccc(Cl)cc1-n1nnc2cc(F)c(-n3c(=O)cc(C(F)(F)F)n(C)c3=O)cc21 recorded_number=1.0
chem_smiles=COc1ccccc1-n1nnc2cc(F)c(-n3c(=O)cc(C(F)(F)F)n(C)c3=O)cc21 recorded_number=9.0
chem_smiles=Cc1ccc(O)c(-n2nnc3cc(F)c(-n4c(=O)cc(C(F)(F)F)n(C)c4=O)cc32)c1 recorded_number=0.0
chem_smiles=C#CCOC(=O)COc1ccc(C)cc1-n1nnc2cc(F)c(-n3c(=O)cc(C(F)(F)F)n(C)c3=O)cc21 recorded_number=1.0
chem_smiles=C=CCOc1ccc(-n2nnc3cc(F)c(-n4c(=O)cc(C(F)(F)F)n(C)c4=O)cc32)c(C)c1 recorded_number=0.0

====

Quick reference: Postemergence herbicidal rating IPOHE of the listed items.
system: IPOHE Morningglory, Ivyleaf; assay: Postemergence herbicidal evaluation, IPOHE; type: in vivo, Ipomoea hederacea, (L.) Jacq.; design: scale not given here; details: 0.008 kg/ha, postemergence spray, rated about two-three weeks after treatment
Readout label: Postemergence herbicidal rating IPOHE

compound="CCc1ccccc1-n1nnc2cc(F)c(-n3c(=O)cc(C(F)(F)F)n(C)c3=O)cc21 [Example 25]" recorded_number=2.0
compound="CCc1ccc(-n2nnc3cc(F)c(-n4c(=O)cc(C(F)(F)F)n(C)c4=O)cc32)cc1COC [Example 28]" recorded_number=9.0
compound="C#CCOC(=O)COc1ccc(C)cc1-n1nnc2cc(F)c(-n3c(=O)cc(C(F)(F)F)n(C)c3=O)cc21 [Example 40]" recorded_number=9.0
compound="COc1ccc(-n2nnc3cc(F)c(-n4c(=O)cc(C(F)(F)F)n(C)c4=O)cc32)c(C)c1 [Example 24]" recorded_number=0.0
compound="Cc1ccc(O)c(-n2nnc3cc(F)c(-n4c(=O)cc(C(F)(F)F)n(C)c4=O)cc32)c1 [Example 31]" recorded_number=1.0
compound="Cc1ccc(-n2nnc3cc(F)c(-n4c(=O)cc(C(F)(F)F)n(C)c4=O)cc32)cc1C [Example 23]" recorded_number=2.0
compound="C#CCOC(=O)COc1ccc(C)c(-n2nnc3cc(F)c(-n4c(=O)cc(C(F)(F)F)n(C)c4=O)cc32)c1 [Example 36]" recorded_number=5.0
compound="COc1ccc(-n2nnc3cc(F)c(-n4c(=O)cc(C(F)(F)F)n(C)c4=O)cc32)cc1 [Example 27]" recorded_number=9.0
compound="COC(=O)COc1ccc(-n2nnc3cc(F)c(-n4c(=O)cc(C(F)(F)F)n(C)c4=O)cc32)c(C)c1 [Example 39]" recorded_number=9.0
compound="COc1ccc(C)cc1-n1nnc2cc(F)c(-n3c(=O)cc(C(F)(F)F)n(C)c3=O)cc21 [Example 18]" recorded_number=9.0
compound="COCc1ccccc1-n1nnc2cc(F)c(-n3c(=O)cc(C(F)(F)F)n(C)c3=O)cc21 [Example 26]" recorded_number=4.0
compound="CCc1cccc(-n2nnc3cc(F)c(-n4c(=O)cc(C(F)(F)F)n(C)c4=O)cc32)c1 [Example 29]" recorded_number=9.0
compound="Cc1ccc(OCC(=O)O)cc1-n1nnc2cc(F)c(-n3c(=O)cc(C(F)(F)F)n(C)c3=O)cc21 [Example 37]" recorded_number=3.0
compound="C=CCOc1ccc(C)cc1-n1nnc2cc(F)c(-n3c(=O)cc(C(F)(F)F)n(C)c3=O)cc21 [Example 42]" recorded_number=9.0
compound="COc1ccc(C)c(-n2nnc3cc(F)c(-n4c(=O)cc(C(F)(F)F)n(C)c4=O)cc32)c1 [Example 22]" recorded_number=2.0
compound="COC(=O)COc1ccc(C)c(-n2nnc3cc(F)c(-n4c(=O)cc(C(F)(F)F)n(C)c4=O)cc32)c1 [Example 38]" recorded_number=5.0
compound="C=CCOc1ccc(-n2nnc3cc(F)c(-n4c(=O)cc(C(F)(F)F)n(C)c4=O)cc32)c(C)c1 [Example 43]" recorded_number=9.0
compound="COc1ccc(Cl)cc1-n1nnc2cc(F)c(-n3c(=O)cc(C(F)(F)F)n(C)c3=O)cc21 [Example 30]" recorded_number=9.0
compound="Cc1ccc(-n2nnc3cc(F)c(-n4c(=O)cc(C(F)(F)F)n(C)c4=O)cc32)cc1 [Example 19]" recorded_number=4.0
compound="COC(=O)C(C)Oc1ccc(C)cc1-n1nnc2cc(F)c(-n3c(=O)cc(C(F)(F)F)n(C)c3=O)cc21 (stereo not shown) [Example 41]" recorded_number=9.0
compound="COC(=O)COc1ccccc1-n1nnc2cc(F)c(-n3c(=O)cc(C(F)(F)F)n(C)c3=O)cc21 [Example 35]" recorded_number=9.0
compound="COC(=O)COc1ccc(C)cc1-n1nnc2cc(F)c(-n3c(=O)cc(C(F)(F)F)n(C)c3=O)cc21 [Example 34]" recorded_number=9.0
compound="CC(C)c1ccc(-n2nnc3cc(F)c(-n4c(=O)cc(C(F)(F)F)n(C)c4=O)cc32)cc1 [Example 21]" recorded_number=9.0
compound="Cc1ccc(O)cc1-n1nnc2cc(F)c(-n3c(=O)cc(C(F)(F)F)n(C)c3=O)cc21 [Example 32]" recorded_number=0.0
compound="Cc1cc(O)ccc1-n1nnc2cc(F)c(-n3c(=O)cc(C(F)(F)F)n(C)c3=O)cc21 [Example 33]" recorded_number=0.0
compound="COc1ccccc1-n1nnc2cc(F)c(-n3c(=O)cc(C(F)(F)F)n(C)c3=O)cc21 [Example 16]" recorded_number=5.0
compound="Cc1ccccc1-n1nnc2cc(F)c(-n3c(=O)cc(C(F)(F)F)n(C)c3=O)cc21 [Example 20]" recorded_number=1.0
compound="CCc1ccc(-n2nnc3cc(F)c(-n4c(=O)cc(C(F)(F)F)n(C)c4=O)cc32)cc1 [Example 17]" recorded_number=9.0
